Tested On: STING (Homo sapiens, UniProt Q86WV6, G230A/H232R/R293Q/R71H)
Sequence (Q86WV6 whole entry R71H/G230A/H232R/R293Q): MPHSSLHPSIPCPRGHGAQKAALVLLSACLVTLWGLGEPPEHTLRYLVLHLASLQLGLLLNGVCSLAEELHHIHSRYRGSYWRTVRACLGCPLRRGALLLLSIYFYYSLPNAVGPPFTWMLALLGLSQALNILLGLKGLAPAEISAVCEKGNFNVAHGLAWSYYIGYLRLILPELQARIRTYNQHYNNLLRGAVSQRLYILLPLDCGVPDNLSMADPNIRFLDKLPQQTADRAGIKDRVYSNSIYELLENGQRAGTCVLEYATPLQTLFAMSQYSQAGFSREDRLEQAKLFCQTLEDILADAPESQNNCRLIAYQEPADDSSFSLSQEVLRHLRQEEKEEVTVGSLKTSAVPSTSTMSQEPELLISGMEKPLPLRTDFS
Experiment Summary: STING reporter assay (luciferase) in THP1-Dual KO-IFNAR2 cells stimulated with 2′3′cGAMP
Setup Conditions: 2′3′cGAMP 15 μM final, 24 h, luciferase reporter activity, read-out: Pharmaron, THP1_IFNAR2 STING 24 h Luci Normalized: GeoMean EC50
pEC50: −log10 of the molar value.
pEC50 values, listed per item

Example entries begin here.
// lookup pEC50 for O=C(Nc1c[nH]c2ccc(OCC[C@@H]3C[C@@H]4CN(CC(F)(F)F)C[C@@H]4C3)cc12)c1ccccn1 [Compound 183] 5.30 to 6.00

// lookup pEC50 for O=C(Nc1c[nH]c2ccc(O[C@H]3C[C@@H](c4ccc(C(F)(F)F)cc4)C3)cc12)c1nccs1 [Compound 175] 6.00 to 6.70

// lookup pEC50 for O=C(Nc1c[nH]c2ccc(O[C@H]3C[C@H](c4ccc(C(F)(F)F)cc4)C3)cc12)c1cscn1 [Compound 239] 6.70 to 7.40

// lookup pEC50 for O=C(Nc1c[nH]c2ccc(O[C@H]3C[C@@H](c4ccc(C(F)(F)F)cc4)C3)cc12)c1cscn1 [Compound 192] 6.00 to 6.70

// lookup pEC50 for O=C(Nc1c[nH]c2ccc(CCOc3ccc(C(F)(F)F)cc3)cc12)C1CC12CCC2 (stereo not shown) [Compound 104] 6.00 to 6.70

Further cases:
// lookup pEC50 for Cc1nnc(C(=O)Nc2c[nH]c3ccc(O[C@H]4C[C@H](c5ccc(C(F)(F)F)cc5)C4)cc23)s1 [Compound 127] 6.00 to 6.70

// lookup pEC50 for O=C(Nc1c[nH]c2ccc(O[C@H]3C[C@@H](c4ccc(C(F)(F)F)nc4)C3)cc12)c1ccccc1 [Compound 216] 6.70 to 7.40

---

pEC50 values, listed per item
Tested On: STING (Homo sapiens, UniProt Q86WV6, G230A/H232R/R293Q/R71H)
Experiment Summary: STING reporter assay (luciferase) in THP1-Dual KO-IFNAR2 cells stimulated with 2′3′cGAMP
Setup Conditions: 2′3′cGAMP 15 μM final, 24 h, luciferase reporter activity, read-out: Pharmaron, THP1_IFNAR2 STING 24 h Luci Normalized: GeoMean EC50
pEC50: −log10 of the molar value.

Example entries begin here.
// lookup pEC50 for O=C(Nc1c[nH]c2ccc(CCOc3ccc(C(F)(F)F)cc3)cc12)c1ccncc1 [Compound 194] 6.00 to 6.70

// lookup pEC50 for Cn1ccnc1C(=O)Nc1c[nH]c2ccc(OCC[C@@H]3C[C@@H]4CN(CC(F)(F)F)C[C@@H]4C3)cc12 [Compound 140] 6.00 to 6.70

// lookup pEC50 for O=C(Nc1c[nH]c2ccc(O[C@H]3C[C@H](c4ccc(C(F)(F)F)cc4)C3)cc12)C12CC(F)(C1)C2 [Compound 133] 6.70 to 7.40

// lookup pEC50 for O=C(Nc1c[nH]c2ccc(OCc3ccc(C(F)(F)F)cc3)cc12)c1cccnc1 [Compound 148] 6.00 to 6.70

// lookup pEC50 for O=C(Nc1c[nH]c2ccc(CCOc3ccc(C(F)(F)F)cc3)cc12)C1CC12CC2 (stereo not shown) [Compound 200] 6.00 to 6.70

Further cases:
// lookup pEC50 for Cn1nccc1C(=O)Nc1c[nH]c2ccc(CCOc3ccc(C(F)(F)F)cc3)cc12 [Compound 103] 6.00 to 6.70

// lookup pEC50 for O=C(Nc1c[nH]c2ccc(O[C@H]3C[C@@H](c4ccc(C(F)(F)F)cc4)C3)cc12)c1ccn[nH]1 [Compound 167] 6.70 to 7.40
